Target desc: T1, UNK ZnF1-6 (called full-length) (human, UniProt Q9C0B0 30-357)
T1 sequence: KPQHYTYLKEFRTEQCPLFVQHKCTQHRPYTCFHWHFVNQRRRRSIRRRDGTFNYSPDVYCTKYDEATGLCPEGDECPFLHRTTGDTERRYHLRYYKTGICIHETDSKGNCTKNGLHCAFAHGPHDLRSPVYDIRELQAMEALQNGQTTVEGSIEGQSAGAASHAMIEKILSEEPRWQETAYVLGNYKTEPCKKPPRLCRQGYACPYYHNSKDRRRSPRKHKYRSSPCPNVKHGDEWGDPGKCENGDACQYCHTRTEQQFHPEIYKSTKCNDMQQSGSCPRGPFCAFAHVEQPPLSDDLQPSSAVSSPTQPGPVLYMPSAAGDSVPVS
Protocol: nsRBNS (natural sequence RNA bind-n-seq); RBNS binding buffer (assumed for nsRBNS): 25 mM Tris pH 7.5, 150 mM KCl, 3 mM MgCl2, 0.01% Triton X-100, 500 ug/ml BSA, 20 U/ml SUPERase-In, 4 C; UNK is unkempt and MSI1 is Musashi-1; names of the RNAs are library labels; protein concentration not given here; high values mean tight binding
Over roughly 5,800 sequences, “enrichment r” has its median near 0.68; the highest 2% begin near 11. The sample as a whole holds a higher share of the highest values than the screen did.
Parameter measured: log10(binding signal) (log10 of the value in enrichment R)

Binder	log10(binding signal)
chr4:185586528:185586629:-|3pUTR|ENSG00000154556|msi1|FALSE|unique (ssRNA) RNA: GGGAGUUCUACAGUCCGACGAUCAUCCAUAUGAUAUGUUGUACAUUUUAUGGAAAUGUAAUAGAAUCUCACACAUUAUUUUAUAGAAAUAGAGUACAGAAGCAUCACAAGUAUUAAAGUUGGUUUUAGCAAGGAUUAGGAUUACAACAGAGGAUUGAGCAUCA	1.06
chr19:18196783:18197469:-|three_prime_utr|ENSG00000105649|control|control|control (ssRNA) RNA: GGGAGUUCUACAGUCCGACGAUCACUACCCGGGCCUGACCCGGCCCCUACCAGCCACGGGCACAAGACCCCUGCUCCUGACUUAGCCCGUCACCCUUAUUUAUUAUUGUAGCUAUUUAUUUAUUUAUUGAAGAUGUCCCCCAGCAACAGAGGAUUGAGCAUCA	1.82
chr4:87473334:87473774:-|three_prime_utr|ENSG00000152583|control|control|control (ssRNA) RNA: GGGAGUUCUACAGUCCGACGAUCCUUUCCAGCAUCCUCCUCUGUUCUAACCACUUCAGAAAUAUAUGCAGCUGUGAUACUUGUAGAUUUAUAUUUAGCAAAAUGUUAGCAUGUAUGACAAGACAAUGAGAGUAAUUGCUUGACCAACAGAGGAUUGAGCAUCA	0.32
chr7:80742902:80743013:-|3pUTR|ENSG00000075223|msi1_unk|total|mutant (ssRNA) RNA: GGGAGUUCUACAGUCCGACGAUCUCAGAGUCACAGUUCCCUUUAUUUCACAUAAGCCCAAACUGACCGACAGUAACGGUGUUCCGUUUUAUACUAUAUUUGUGCUAUUUAAUUCUUUCUAUUUUCACAAUUAUUAAAUUGUGUCAACAGAGGAUUGAGCAUCA	0.23
chr5:180576808:180576909:+|3pUTR|ENSG00000113300|unk|FALSE|unique (ssRNA) RNA: GGGAGUUCUACAGUCCGACGAUCUAUUUUCCGUGUCCUAAAUAAUUUUCAAUAAUCUAUAAUCCCUAAAAUGCAAUAAAAACUAGUAUGUUUUCACGGUGUAUAUUUUUUUUCAAAAAUUCUGUAACAAAUAUAUUUAAUGUGCAACAGAGGAUUGAGCAUCA	1.32
chr1:52238154:52238269:+|CDS|ENSG00000157077|unk|total|mutant (ssRNA) RNA: GGGAGUUCUACAGUCCGACGAUCUCUGACCGUCCCGCCAGUGUCUGUUCCCCUUCACAAUUAAAGGAUGACGGAAGUACCGGCCGAGACCCCUCCAUGUCUGCGAUUACAAGUUUAACGGUUGAUUCAGUAAUCUCAUCCCAGCAACAGAGGAUUGAGCAUCA	-0.32
chr7:20412070:20412171:+|3pUTR|ENSG00000105855|msi1|total|mutant (ssRNA) RNA: GGGAGUUCUACAGUCCGACGAUCCUUUUUUUUUAUAAUAAACUUCCAAGAUUUGCUGUCUUCCAGCACUUGAGUUAAAGUACCCGAUACUGCAUUUUGAUGAAGACUAACCCCAUCUCAUAUUCUACCCUAAAGAGAACUGAACAACAGAGGAUUGAGCAUCA	-0.04
ENSG00000107863:be:win_451|CDS|ENSG00000107863|bound_else_gene|NA|bound_elsewhere_windowed (ssRNA) RNA: GGGAGUUCUACAGUCCGACGAUCUUGGAACUUAGUGUUAUGCCAAAAGAUGAAGACAUUCUCCAAGUGCUACAGUUUACAAAGGAUGUCACAGCACUGGCAUAUUCUCAAGAUGCCUACCUGAAAGGCAACGAAGCUUAUAGCCAACAGAGGAUUGAGCAUCA	-0.40
ENSG00000181035:stop:overlap|stop_codon|ENSG00000181035|stop_codon|NA|stop_codon (ssRNA) RNA: GGGAGUUCUACAGUCCGACGAUCUGGGCAUCAGCUUCACCACCUUCGACCUCAUGCAGAUCCUGCUGCGGCACCUGCAGAGCUAGGGGACCCUGAGCUGCUCUCAGGACGGUGGACCGGUGACCCCUUUGUAUUCUGGGCCCACAACAGAGGAUUGAGCAUCA	0.08

Numbers sourced from paper PMC12136788.
